System: K562 CRISPRi cells
Assay: Constant region variant library pooled growth screen, K562
Assay type: cell-based, human
Conditions: sgRNA constant region variants; activity relative to the original, un-modified constant region cr995
readout-type: Mean relative activity
Answers are plain numbers.

Example entries and their recorded answers appear below.
molecule | Mean relative activity
cr032 (nucleic acid, listed as DNA, chemistry not fully specified) guide: GATTGAGAGCTAAGCTGGAAACAGCATAGCAAGTTTAAATAAGGCTAGTCCGTTATCAACTTGAAAAAGTGGCACCGAGTCGGTGCT | 0.02646
cr476 (nucleic acid, listed as DNA, chemistry not fully specified) guide: GTTTAAGAGCTAAGCTGGAAACAGCATAGCAAGTTTAAATAAGGCTAGTCCGTTATCAACTTGAAAAAGTGCGACCGAGTCGGTCGT | 1.039
cr082 (nucleic acid, listed as DNA, chemistry not fully specified) guide: CGTTAAGAGCTAAGCTGGAAACAGCATAGCAAGTTTAAATAAGGCTAGTCCGTTATCAACTTGAAAAAGTGGCACCGAGTCGGTGCT | 0.0741

Switching to the query record.
*Q* Which Mean relative activity is reported for this molecule? cr508 (nucleic acid, listed as DNA, chemistry not fully specified) guide: GTTTAAGAGCTAAGCTGGAAACAGCATAGCAAGTTTAAATAAGGCCAGTCCGTGATCAACTTGAAAAAGTGGCACCGAGCCGGTGCT
*A* 0.7636
